Please provide measured unfolding enthalpy (van 't Hoff) for the entries that follow.
B1: Ribonuclease HI, P0A7Y4 (parent)
chain: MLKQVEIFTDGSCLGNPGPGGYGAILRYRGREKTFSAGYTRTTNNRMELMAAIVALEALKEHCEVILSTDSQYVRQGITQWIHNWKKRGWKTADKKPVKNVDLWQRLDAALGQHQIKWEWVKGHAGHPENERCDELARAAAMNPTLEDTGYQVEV

variants of: B1; conditions: Escherichia coli (strain K12); pH 5.5; Thermal; CD; Sodium acetate 20 mM; NaCl 0.1 M; reversible: yes; structure 2RN2; whole UniProt chain shown
Please reply with the bare figure in kcal/mol and do not write the unit itself.

Look at this variant and give its reported unfolding enthalpy (van 't Hoff). H62P T40A K122R
96.9

Okay, and G23A ?
91.8

Same for Q80L
94.6

Okay, and Q80L K117R ?
83.1

Try this variant too: H62P
102

Also need Q76L , thanks.
81.2

Entry E135K please
89.9

Next variant up: E119V R41C
107

And the next one, E119V ?
94.3

Also check E119V K60R
98.6

Also H62D , if possible.
97.8

What do you have for R41C ?
102

Next variant: A24V
101

# iterate: A52V
87.5

How about H62R ?
97.1
